Data credit: PubChem BioAssay AID709

Assay: intrinsic fluorescence of library compounds, ex339/em460 – biochemical, MLSMR library, data from DPM-DC assay, artefact control, profiling panel (AID 709);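 note: signal is the first read of a kinetic run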
Conditions: compound autofluorescence, ex339/em460 nm, NADH buffer; at 10 µM; active compounds read high; 1 = no-compound wells, NADH background
The campaign covered roughly 65,000 compounds. About 3,600 (5.5%) were called active. The list comes from a sample in which actives are over-represented; it also holds close analogues and randomly drawn compounds.
ENDPOINT_LABEL: fluorescence fold increase
Respond using a number only.

Please review the following examples before continuing.
O=C(CSc1nnnn1C1CCCC1)Nc1ccc2c(c1)OCCO2 ... 1.11
CCN(CC)S(=O)(=O)c1ccc2[nH]cc(C(=O)NCCc3ccccc3)c(=O)c2c1 ... 1.58
CCOc1ccc(Nc2oc(Cc3ccccc3)nc2C#N)cc1 ... 1.13
Cc1coc2c(O)cc3c(c12)OC1(N2CCCCC2)C(=O)NCCCC31 (stereo not drawn) ... 1.1
COC(=O)c1ccc(Oc2nc(Nc3ccc(F)cc3)nc(N3CCCC3)n2)cc1 ... 1.09
Fc1ccc(-c2nnc3sc(-c4ccc5c(c4)OCO5)nn23)cc1 ... 2.05

Exercise: Quick check: fluorescence fold increase of COC(=O)c1cn(C)c2ccc(S(=O)(=O)N3CC(C)CC(C)C3)cc2c1=O (stereo not drawn) ?
Key: 0.95

Exercise: Okay, and `O=C(Nc1cccc(OCC(=O)N2CCOCC2)c1)C1CCCCC1` ?
Key: 1.05

Exercise: Okay, and `CCOC(=O)c1csc(NC(=O)c2ccc(S(=O)(=O)N3CCCC3)cc2)n1` ?
Key: 2.49

Exercise: Okay, and `O=C(CSc1nc(-c2ccco2)cc(C(F)(F)F)n1)N1CCc2ccccc2C1` ?
Key: 1.1
